Test system: RARb homodimer (NR concentration 270 nM)
Assay: PBM binding z-score (relative to random genomic background probes); higher = stronger binding; sequences stand for … in GC…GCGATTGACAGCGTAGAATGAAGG
readout_label: PBM binding z-score
Please reply with the value in numeric form only.

Example entries and their recorded answers appear below.
chain_sequence: GCGACTGGGCCATCAGCAGGTTACCATAACTTAA
PBM binding z-score: 0.461

chain_sequence: CCTGCGAGGTCAATGGTCAGCTAAAGCAGCTCGC
PBM binding z-score: 4.2

chain_sequence: GCGACTGGGGCAAAGCAGATTACCATAAGGTTGG
PBM binding z-score: -0.011

chain_sequence: TCTCGGAGGACATGAAGGTCAGAGCTTTCCAGAG
PBM binding z-score: 3.3

chain_sequence: TCTAGTAGTTGAAGGGCAACCGACGAGTCCGTTT
PBM binding z-score: 1.29

Value lookup for PBM binding z-score; key = "TCGCGGAGGACACGAAAGGTCAGAGCTCGACATC"
4.42

Value lookup for PBM binding z-score; key = "ATATGTACGTTACATCCGGGTCATTCAGGCTATG"
2.41

Value lookup for PBM binding z-score; key = "ACTCGGAGGACAAAGGTCATAGCTACGCCAGTGA"
4.7

Value lookup for PBM binding z-score; key = "ATCGAAAGGTCGACGAGGTGTGTATACACCGTTT"
2.54

Value lookup for PBM binding z-score; key = "CAAACTAGGTCATCCAGGACAGTGAATACATTGA"
3.12

Value lookup for PBM binding z-score; key = "GCTGATAGGTCAACTGATGGTCAGCTAAAGCTCG"
3.72

* * *

Tested on: PPARg:RXRa (NR concentration 180 nM, RXRa partner concentration 90 nM)
Assay: PBM binding z-score (relative to random genomic background probes); higher = stronger binding; sequences stand for … in GC…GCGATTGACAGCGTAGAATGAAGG
Okay, here is how we bin by PBM binding z-score: label 0 = under 0.9, label 1 = from 0.9 up to 3, label 2 = 3 and over

// below: answered sequences
chain_sequence: AGTCAAAGTTCATCTAGGTAACGTATGATATGCT
category_label: label 2
--
chain_sequence: CGTCCCAGGTCAGAGAGGTCAGTGAATGCCGAGT
category_label: label 1
--
chain_sequence: CCTACTTGGCCAAGGTCATTGATCAGTCAAAGCA
category_label: label 1
--
chain_sequence: GCTTGTAGATCCAGGTTAAGAAAGACTAAGCTAA
category_label: label 0
--
chain_sequence: TCTATTAGTTCAAGGGCAACCGACGAGTCCGTTT
category_label: label 0
--
chain_sequence: CCTAGTTGGTCAGGAGGTCACACCCCGGATATGA
category_label: label 1
--
chain_sequence: TCTTGTAGATGAATAGAGGTTAAGAAAGTGCGCT
category_label: label 0
--
chain_sequence: CCTGCTAGGTCAATGGTCGGCTAAAGCAGCTCGC
category_label: label 2
--
chain_sequence: CGAACCAGGTCATCCAGGACAGTGAATACATTGA
category_label: label 2
--
chain_sequence: CGTACTAGGTCAGAACAGGACAGTGAAGGATGAT
category_label: label 2

Query sequence follows.
For the record "TCTCGGAGGCCACGAAAGGTCAGAGCTCGACATC" , report the class its PBM binding z-score corresponds to.
label 1

The measurements presented in this section are drawn from the supplement of paper PMC6555819.
